experiment: basal MM1S mitochondrial membrane potential changes, profiling panel, cell-based, JC-1 fluorescence, 24 h, 100 nL compound (AID 1170); conditions: higher = more signal; also: test concentration not given here
Below, each entry is listed with its recorded z-score.
Just the number, please.

# example entries with known answers
| molecule | z-score |
| --- | --- |
| CCCCN1CC=CC23O[C@@H]4C=CCCOC(=O)C4[C@H]2C(=O)N(CCCCCCO)[C@@H]3C1=O (stereo partly drawn) | -0.399 |
| COC(=O)C[C@H]1O[C@]2(C(=O)N(C)c3ccccc32)[C@@H](C)[C@@H]1[Si](C)(C)F | 0.632 |
| C=CC[C@@]12N=C(c3ccc(OCCCO)cc3)O[C@@H]1c1ccccc1N(C)C2=O | -0.767 |
| CO[C@H]1O[C@H](CO)[C@@H](OC(=O)Nc2ccc(Oc3ccccc3)cc2)[C@H](OC(=O)Nc2ccc3c(c2)OCO3)[C@H]1OC(=O)Nc1ccc2c(c1)OCO2 | 0.818 |
| C=C(COC)/C(=C/C[C@@H](OC(C)=O)c1ccc(OCCO)cc1)c1cnc2ccccc2c1 | -0.701 |
| COC(=O)[C@@]1(Cc2ccc(F)cc2)[C@H]2c3cc(C(=O)N(C)C)n(Cc4ccccc4)c3C[C@H]2CN1C(=O)c1ccccc1 | -0.529 |
| CCOC(=O)C[C@H]1[C@H](OC(=O)c2ccc(-c3ccccc3)cc2)[C@@H](NC(=O)Cc2ccc(OC)cc2)c2cc(OCCCO)ccc2N1C(=O)c1ccccc1 | -0.102 |

Give the measured z-score of C=C(/C(=C/C[C@H](OC(C)=O)c1ccccc1OCCO)c1cnc2ccccc2c1)C(C)C .
-0.685

Values from PubChem BioAssay
